Data origin: patent US20220177587A1

Target: huPD-L1 (Homo sapiens, UniProt Q9NZQ7)
Sequence (Q9NZQ7 19-290): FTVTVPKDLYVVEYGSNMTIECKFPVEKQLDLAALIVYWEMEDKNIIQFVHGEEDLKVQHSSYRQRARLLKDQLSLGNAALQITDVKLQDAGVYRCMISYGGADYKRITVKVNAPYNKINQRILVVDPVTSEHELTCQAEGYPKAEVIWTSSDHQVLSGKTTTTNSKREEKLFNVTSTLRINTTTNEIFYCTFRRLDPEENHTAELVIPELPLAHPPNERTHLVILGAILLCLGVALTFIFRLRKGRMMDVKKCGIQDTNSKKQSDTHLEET
Assay: Flow binding to CHO cells stably expressing PD-L1
Set-up: huCTLA4 and huPD-L1, full-length mammalian surface expression constructs were generated; expressed in transfected cells; host or cells: CHO cells, lentiviral transduction, sorted to >98% purity
Settings: Table E25; linker variants; 33.3 nM; CHO cells stably expressing PD-L1
assayMetric: PD-L1 MFI at 33.3 nM
Answer as a number with no unit attached.

For this molecule ( E35D/D46V/M47L/V68M/L85Q/E88D (EAAAK)3 (protein, UniProt P33681 35-288, looked up, variant E35D D46V M47L V68M L85Q E88D, (EAAAK)3 linker) T-lymphocyte activation …: VIHVTKEVKEVATLSCGHNVSVEELAQTRIYWQKDKKMVLTMMSGVLNIWPEYKNRTIFDITNNLSIMILALRPSDEGTYECVVQKYDKDAFKREHLAEVTLSVKADFPTPSISDFEIPTSNIRRIICSTSGGFPEPHLSWLENGEELNAINTTVSQDPETELYAVSSKLDFNMTTNHSFMCLIKYGHLRVNQTFNWNTTKQEHFPDNLLPSWAITLISVNGIFVICCLTYCFAPRCRERRRNERLRRESVRPV ), measured PD-L1 MFI at 33.3 nM is 25461
